assay.system: human CD8 on human T cells (human, UniProt P01732 22-235)
Sequence (P01732 22-235): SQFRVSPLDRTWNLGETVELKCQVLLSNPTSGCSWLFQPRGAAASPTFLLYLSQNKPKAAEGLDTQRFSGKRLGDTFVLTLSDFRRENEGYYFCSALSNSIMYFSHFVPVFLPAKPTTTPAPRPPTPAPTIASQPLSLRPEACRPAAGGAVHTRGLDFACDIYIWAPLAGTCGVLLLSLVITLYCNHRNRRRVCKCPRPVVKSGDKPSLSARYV
experiment.description: cell-based or functional assay
Each record is given satisfied if its reported EC50 of pSTAT4 signaling in human CD8+ T cells is strictly below 10 pM. Records at or above 10 pM are given not satisfied.

Answered examples (4):
| binder | assigned.label |
| --- | --- |
| 03A01-Fab-IL12 (LC) (other) VH: DVQFQESGPGLVKPSQSLSLTCTVTGYSITSDFAWNWIRQFPGNELEWMGYISYSGDTNYNPSLRSRISITRDTSKNQFFLQLDSVTTEDTATYYCTIRGYYTDSAFVFWGQGTLVTVSA VL: DIQMTQSSSYLSVSLGGRVTITCKASDHINNWLAWYQQKPGNAPRLLISGATSLETGVPSRFTGSGSGLDYTLSITSLQTEDVATYYCQQYWNSPFTFGSGTKLEIK | not satisfied |
| 03A01-Fab-Fc-IL12 (LC) (other) VH: DVQFQESGPGLVKPSQSLSLTCTVTGYSITSDFAWNWIRQFPGNELEWMGYISYSGDTNYNPSLRSRISITRDTSKNQFFLQLDSVTTEDTATYYCTIRGYYTDSAFVFWGQGTLVTVSA VL: DIQMTQSSSYLSVSLGGRVTITCKASDHINNWLAWYQQKPGNAPRLLISGATSLETGVPSRFTGSGSGLDYTLSITSLQTEDVATYYCQQYWNSPFTFGSGTKLEIK | not satisfied |
| 03A01-IgG-IL12 (HC) (other) VH: DVQFQESGPGLVKPSQSLSLTCTVTGYSITSDFAWNWIRQFPGNELEWMGYISYSGDTNYNPSLRSRISITRDTSKNQFFLQLDSVTTEDTATYYCTIRGYYTDSAFVFWGQGTLVTVSA VL: DIQMTQSSSYLSVSLGGRVTITCKASDHINNWLAWYQQKPGNAPRLLISGATSLETGVPSRFTGSGSGLDYTLSITSLQTEDVATYYCQQYWNSPFTFGSGTKLEIK | not satisfied |
| 02A01-Fab-Fc-IL12 (LC) (other) VH: EVQLQQSGPELVKPGASLKISCKASGYTFTDFTMHWVKQSHGKSLEWIGLVNPNNGGNIYNQNFKGKATLTVDTSSSTAYMELRSLTSEDSSVYYCGRVPLYTSHGMDYWGQGTSVTVSS VL: DIVLTQSPAFLAVSLGQRATISCRASESVDSYDINSMHWYQQKPGQPPKLLIYRASHLQSGIPARFSGSGSRTDFTLTINFVEADDVATYYCQQSNEDPLTFGAGTKLELK | satisfied |

Strictly below 10 pM: is that where EC50 of pSTAT4 signaling in human CD8+ T cells of 03A01-IgG-IL12 (LC) (other, 03A01 IgG with human IL-12p70 linked to the C-terminus of each light chain; human IgG1 Fc with L234A, L235A, P329G, N297A; also called 03A01 IgG IL12p70 (LC)) VH: DVQFQESGPGLVKPSQSLSLTCTVTGYSITSDFAWNWIRQFPGNELEWMGYISYSGDTNYNPSLRSRISITRDTSKNQFFLQLDSVTTEDTATYYCTIRGYYTDSAFVFWGQGTLVTVSA VL: DIQMTQSSSYLSVSLGGRVTITCKASDHINNWLAWYQQKPGNAPRLLISGATSLETGVPSRFTGSGSGLDYTLSITSLQTEDVATYYCQQYWNSPFTFGSGTKLEIK sits?
not satisfied
